Value source: paper PMC5976803

Target: anti-CLDN-5 ECR mAb clone 2B1
Sequence (chain, as listed by the source, chain 1 of 2): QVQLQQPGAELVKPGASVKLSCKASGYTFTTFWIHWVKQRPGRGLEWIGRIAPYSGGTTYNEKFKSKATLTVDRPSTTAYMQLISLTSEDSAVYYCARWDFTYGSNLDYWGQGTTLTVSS
Sequence (chain, as listed by the source, chain 2 of 2): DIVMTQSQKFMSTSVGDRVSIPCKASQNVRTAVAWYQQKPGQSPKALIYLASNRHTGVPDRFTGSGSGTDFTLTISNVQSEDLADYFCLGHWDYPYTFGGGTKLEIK
Assay: proteoliposome ELISA
Conditions: chain shown with the change;; parent: est. 1.0; read off a plot
measured.property: ratio to parent
One number for each entry.

Consider the reported ratio to parent for these binders:
1) AGIA-tagged human CLDN-5, cell-free synthesized proteoliposome, O00501 P153A (protein) MGSAALEILGLVLCLVGWGGLILACGLPMWQVTAFLDHNIVTAQTTWKGLWMSCVVQSTGHMQCKVYDSVLALSTEVQAARALTVSAVLLAFVALFVTLAGAQCTTCVAPGPAKARVALTGGVLYLFCGLLALVPLCWFANIVVREFYDPSVAVSQKYELGAALYIGWAATALLMVGGCLLCCGAWVCTGRPDLSFPVKYSAPRRPTATGDYDKKNYV :: 0.14
2) AGIA-tagged human CLDN-5, cell-free synthesized proteoliposome, O00501 F147A (protein) MGSAALEILGLVLCLVGWGGLILACGLPMWQVTAFLDHNIVTAQTTWKGLWMSCVVQSTGHMQCKVYDSVLALSTEVQAARALTVSAVLLAFVALFVTLAGAQCTTCVAPGPAKARVALTGGVLYLFCGLLALVPLCWFANIVVREAYDPSVPVSQKYELGAALYIGWAATALLMVGGCLLCCGAWVCTGRPDLSFPVKYSAPRRPTATGDYDKKNYV :: 1.1

Query :: Tell me measured ratio to parent for AGIA-tagged human CLDN-5, cell-free synthesized proteoliposome, O00501 V152A (protein) MGSAALEILGLVLCLVGWGGLILACGLPMWQVTAFLDHNIVTAQTTWKGLWMSCVVQSTGHMQCKVYDSVLALSTEVQAARALTVSAVLLAFVALFVTLAGAQCTTCVAPGPAKARVALTGGVLYLFCGLLALVPLCWFANIVVREFYDPSAPVSQKYELGAALYIGWAATALLMVGGCLLCCGAWVCTGRPDLSFPVKYSAPRRPTATGDYDKKNYV please.
Result :: 1.2
